- assay info: self-splicing fitness, log relative to wild type (ln ratio); higher = more splicing; Tetrahymena group I intron in knt gene, E. coli kanamycin selection, DiMSum; sequences stand for … in CUCUCU…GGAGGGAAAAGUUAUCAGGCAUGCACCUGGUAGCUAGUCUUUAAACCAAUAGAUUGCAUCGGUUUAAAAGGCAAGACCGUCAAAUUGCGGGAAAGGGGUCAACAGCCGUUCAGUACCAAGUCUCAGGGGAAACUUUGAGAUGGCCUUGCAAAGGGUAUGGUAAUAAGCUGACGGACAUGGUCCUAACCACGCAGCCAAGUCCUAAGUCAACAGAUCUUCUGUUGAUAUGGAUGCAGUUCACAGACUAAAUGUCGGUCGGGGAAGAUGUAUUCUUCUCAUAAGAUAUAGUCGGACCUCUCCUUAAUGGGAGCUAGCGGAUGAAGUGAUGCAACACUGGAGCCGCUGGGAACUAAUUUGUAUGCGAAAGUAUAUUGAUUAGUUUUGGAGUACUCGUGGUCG;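 further: selection with 25 µg/mL kanamycin versus none on LB agar overnight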
- condition label: 30 °C
Use -3 as the dividing line for self-splicing fitness (ln), with the line itself on the YES side and lower values as NO.

Is the recorded value of self-splicing fitness (ln) equal to or greater than -3 for this sequence? AUGGAGCAAUAUUACGUUUA YES

Proceed to GUCGAGCAAUAUUACGUGAC NO

Would you mind doing CAGAAGCAAUAUUACGGCUG as well? YES

What do you have for CAAGAGCAAUAUUACGUCCU ? NO

Same again, this time with UGGCAGCAAUAUUACGGUAC YES

Field entry: CGCUAGCAAUAUUACGACAC NO

Same thing, different sequence: CGCAAGCAAUAUUACGGGCU YES

Again, but for GCUUAGCAAUAUUACGUAGC NO

And for CAAUAGCAAUAUUACGCUAU ? YES

Would you mind doing UAAUAGCAAUAUUACGGCCU as well? YES

Next:
Threshold query (self-splicing fitness (ln) >= -3) on GCGGAGCAAUAUUACGGUCG NO

Now consider GUCAAGCAAUAUUACGGCGG . NO

Let us now turn to UCUGAGCAAUAUUACGUUCA YES

UGCUAGCAAUAUUACGAUUU , same question. YES

Now give it for GACAAGCAAUAUUACGUACA too. YES

Please give the result for CUAUAGCAAUAUUACGCUGA too. YES

What about ACCCAGCAAUAUUACGACAU ? YES

Similarly, UGAAAGCAAUAUUACGUCAU ? NO

And AGGAAGCAAUAUUACGACCU ? YES

Next sequence up: AGGUAGCAAUAUUACGAUGC YES

Do the same for GAGCAGCAAUAUUACGUGAG please YES

Queued: UUUUAGCAAUAUUACGACUA YES

How about GCCCAGCAAUAUUACGGCUA ? YES

###

- assay info: self-splicing fitness, log relative to wild type (ln ratio); higher = more splicing; Tetrahymena group I intron in knt gene, E. coli kanamycin selection, DiMSum; sequences stand for … in CUCUCU…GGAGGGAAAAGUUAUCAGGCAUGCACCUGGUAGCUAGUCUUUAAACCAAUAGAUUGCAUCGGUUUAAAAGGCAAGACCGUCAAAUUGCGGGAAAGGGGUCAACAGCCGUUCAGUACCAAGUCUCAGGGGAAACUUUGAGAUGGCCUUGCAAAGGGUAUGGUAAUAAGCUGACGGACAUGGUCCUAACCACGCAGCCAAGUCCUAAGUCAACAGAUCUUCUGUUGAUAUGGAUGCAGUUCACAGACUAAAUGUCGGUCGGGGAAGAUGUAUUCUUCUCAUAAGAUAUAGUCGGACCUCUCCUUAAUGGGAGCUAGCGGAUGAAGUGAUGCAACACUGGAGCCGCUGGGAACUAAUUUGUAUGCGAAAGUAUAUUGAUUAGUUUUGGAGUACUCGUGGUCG
- condition label: 37 °C
Assign label 1 to entries whose self-splicing fitness (ln) meets or exceeds -2; assign label 0 to the rest.

Could you please find out whether UUCGAGCAAUAUUACGCAAA has self-splicing fitness (ln) that meets -2 or exceeds it? label 1

Item: CCAGAGCAAUAUUACGGGUG label 1

Now this one: UGUAAGCAAUAUUACGGCGA label 1

Same for UAGUAGCAAUAUUACGAUGG label 1

Now consider AGUCAGCAAUAUUACGGACU and answer again. label 0

Next:
API: above_or_equal(metric=self-splicing fitness (ln), cutoff=-2) for item GGCCAGCAAUAUUACGGGUU label 0

// query: CCAUAGCAAUAUUACGCUAU label 0

Also check CUGUAGCAAUAUUACGCUAG label 0

Try this sequence too: CCGUAGCAAUAUUACGUAGG label 1

Further, for AACUAGCAAUAUUACGCGCU ? label 1

What do you get for UUGCAGCAAUAUUACGUUGU ? label 0

Another: UCUCAGCAAUAUUACGUUUG label 0

Next sequence up: UGAAAGCAAUAUUACGGUCU label 1

GGACAGCAAUAUUACGAUAC , same question. label 1

Could you do the same for GUGAAGCAAUAUUACGGAUU , please? label 1

Quick one: UCAUAGCAAUAUUACGCACU label 0

The measurements presented in this section are drawn from the supplement of paper PMC7877785.
